Data provenance: paper PMC6556873

Measured On: NUDT7 (Homo sapiens)
Construct: residues 14-235, E. coli, pNIC28-Bsa4, N-terminal His6 tag removed by TEV, construct 26672 Da
Sequence (P0C024 14-235): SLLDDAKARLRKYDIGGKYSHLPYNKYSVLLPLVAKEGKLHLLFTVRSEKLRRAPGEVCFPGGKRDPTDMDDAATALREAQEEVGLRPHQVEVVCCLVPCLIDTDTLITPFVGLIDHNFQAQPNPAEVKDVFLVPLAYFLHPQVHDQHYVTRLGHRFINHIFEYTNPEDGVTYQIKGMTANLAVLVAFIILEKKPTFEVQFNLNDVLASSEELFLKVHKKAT
Set-up: Intact protein LC/MS covalent labelling, fragments in pools of five, 200 uM each, 4 °C
Test Parameters: 24 h, 4 °C, pool of five; 200 µM; covalent
Assay Readout: NUDT7
Just the number.

Enquiry: Identify NUDT7 associated with the compound O=C(CCl)N=c1sccn1Cc1cccc2ccccc12
Return: 0

* * *

Measured On: BSA (Bos taurus)
Construct: gene ALB
Parameters: Intact protein LC/MS covalent labelling, fragments in pools of five, 200 uM each, 4 °C
Test Parameters: 24 h, 4 °C, pool of five; 200 µM; covalent
Reported BSA values for the following compounds.
Just the number.

Compound: C=CC(=O)N1CCC(C(=O)[O-])CC1.[Na+] [PCM-0102613]
Measured On: BSA (Bos taurus)
BSA: 0

Compound: C=CC(=O)N1CC(=O)NC2CCCCC21 (centres unmarked) [PCM-0102717]
Measured On: BSA (Bos taurus)
BSA: 0

Compound: O=C(CCl)Nc1ccc(C(=O)O)cc1 [PCM-0102400]
Measured On: BSA (Bos taurus)
BSA: 0

Compound: CCc1cc(C(=O)NNC(=O)CCl)sc1C [PCM-0102300]
Measured On: BSA (Bos taurus)
BSA: 0

Compound: C=CCNC(=O)NC(=O)CCl [PCM-0102709]
Measured On: BSA (Bos taurus)
BSA: 0

Enquiry: Identify BSA associated with the compound Cc1c(C#N)c(NC(=O)CCl)n(-c2ccccc2)c1C [PCM-0102261]
Return: 0

Enquiry: Identify BSA associated with the compound C=CC(=O)NC1CCc2cnn(C(C)C)c2C1 (centres unmarked) [PCM-0102487]
Return: 0

Enquiry: Identify BSA associated with the compound C=CC(=O)Nc1ccccc1C(=O)OC [PCM-0102967]
Return: 0

* * *

Reported viability at 48 h, 10 µM values for the following compounds.
Experimental Details: in vitro
Parameters: species or system CCD841, HEK293
Test Parameters: human, hb2 cells, read-out: HB-2 Cells Viability (%)
Respond with the bare value in %.

Enquiry: Identify viability at 48 h, 10 µM associated with the compound O=C(CCl)Nc1ccc(I)cc1
Return: 18.7

Enquiry: Identify viability at 48 h, 10 µM associated with the compound O=C(CCl)NC1c2ccccc2-c2ccccc21
Return: 61.8

* * *

Experimental Details: in vitro
Parameters: species or system HB2, CCD841
Test Parameters: human, hek293 cells
Decision: viability at 48 h, 10 µM beneath 80% gives 1; viability at 48 h, 10 µM meeting or exceeding 80% gives -1.

Worked examples, 5 compounds total:
Compound: O=C(CCl)NNC(=O)C1COc2ccccc2O1 (stereo not drawn) [PCM-0102384]
Class Name: -1
--
Compound: CC(=O)c1cccc(N2Cc3ccccc3C2=NC(=O)CCl)c1 [PCM-0102283]
Class Name: 1
--
Compound: CS(=O)(=O)c1ccc(Cl)c(NC(=O)CCl)c1 [PCM-0102220]
Class Name: 1
--
Compound: C=CC(=O)N1CC(=O)NC2CCCCC21 (stereo not drawn) [PCM-0102717]
Class Name: -1
--
Compound: C=CC(=O)N1CCN(c2nc3ccccc3o2)C(C)C1 (stereo not drawn) [PCM-0102441]
Class Name: -1

Moving on to the next compound.
Enquiry: Here's an entry: Cc1cc(Br)ccc1NC(=O)CCl [PCM-0102799] . Is its viability at 48 h, 10 µM below 80%?
Return: 1

* * *

Reported viability at 48 h, 10 µM values for the following compounds.
Experimental Details: in vitro
Design: species or system HB2, CCD841
Test Parameters: human, hek293 cells
Respond with the bare value in %.

Compound: C=CC(=O)NCC1COc2ccccc2O1 (centres unmarked)
viability at 48 h, 10 µM (%): 76.1

Compound: Cc1c(C#N)c(NC(=O)CCl)n(-c2ccc(F)cc2)c1C
viability at 48 h, 10 µM (%): 11.6

Compound: NC(=O)c1c(NC(=O)CCl)sc2c1CCC2
viability at 48 h, 10 µM (%): 2.6

Compound: C=CC(=O)NCC1CCN(C)c2ccccc21 (centres unmarked)
viability at 48 h, 10 µM (%): 73

Compound: Cc1ccccc1C(C)NC(=O)CCl (centres unmarked)
viability at 48 h, 10 µM (%): 75.8

Enquiry: Identify viability at 48 h, 10 µM associated with the compound O=C(CCl)Nc1cc(Cl)ccc1F
Return: 2.4

Enquiry: Identify viability at 48 h, 10 µM associated with the compound O=C(CCl)NC(=O)Nc1ccc2c(c1)OCCO2
Return: 80.3

Enquiry: Identify viability at 48 h, 10 µM associated with the compound CN(Cc1c(F)cccc1Cl)C(=O)CCl
Return: 4.9

* * *

Experimental Details: in vitro
Design: species or system HB2, CCD841
Test Parameters: human, hek293 cells
Assay Readout: viability at 48 h, 10 µM (%)
Respond with the bare value in %.

The following compounds have reported results that may help.
Compound: Cc1cc(NC(=O)CCl)n(-c2ccccc2C)n1
Unit Tag: %
viability at 48 h, 10 µM: 36.9
//
Compound: O=C(CCl)NC1CCC2(CC1)OCCO2
Unit Tag: %
viability at 48 h, 10 µM: 111
//
Compound: C=CC(=O)N1CCC(C#N)(c2ccccn2)CC1
Unit Tag: %
viability at 48 h, 10 µM: 104
//
Compound: Cc1cccc(N2CCN(C(=O)CCl)CC2)c1.Cl
Unit Tag: %
viability at 48 h, 10 µM: 35.9

Enquiry: Identify viability at 48 h, 10 µM associated with the compound C=CC(=O)N1CCC(C(=O)O)(c2ccccc2)CC1
Return: 110

* * *

Measured On: NUDT7 (Homo sapiens)
Construct: residues 14-235, E. coli, pNIC28-Bsa4, N-terminal His6 tag removed by TEV, construct 26672 Da
Set-up: Intact protein LC/MS covalent labelling, fragments in pools of five, 200 uM each, 4 °C
Test Parameters: 24 h, 4 °C, pool of five; 200 µM; covalent
Reported NUDT7 values for the following molecules.
Just the number.

Molecule: O=C(CCl)Nc1ccccc1N1CCCC1
Numeric Readout: 0

Enquiry: Identify NUDT7 associated with the molecule C=CC(=O)NC1CCCn2nc(C)nc21 (centres unmarked)
Return: 0

Enquiry: Identify NUDT7 associated with the molecule Cl.O=C(CCl)N1CCN(c2cccc(C(F)(F)F)c2)CC1
Return: 0.08

Enquiry: Identify NUDT7 associated with the molecule O=C(CCl)Nc1ccccc1C(=O)O
Return: 0

Enquiry: Identify NUDT7 associated with the molecule O=C(CCl)N1CCCc2cc(S(=O)(=O)N3CCCC3)ccc21
Return: 0

Enquiry: Identify NUDT7 associated with the molecule COC(=O)C1Cc2ccccc2CN1C(=O)CCl (centres unmarked)
Return: 0.19

Enquiry: Identify NUDT7 associated with the molecule O=C(CCl)Nc1ccc(N2CCCC2=O)cc1
Return: 0

Enquiry: Identify NUDT7 associated with the molecule CCc1ccccc1NC(=O)CCl
Return: 0

Enquiry: Identify NUDT7 associated with the molecule CC1Cc2cc(S(N)(=O)=O)ccc2N1C(=O)CCl (centres unmarked)
Return: 0.07

Enquiry: Identify NUDT7 associated with the molecule O=C(CCl)NC1CCSC1=O (centres unmarked)
Return: 0

Enquiry: Identify NUDT7 associated with the molecule C=CC(=O)Nc1nc(-c2ccccc2C)cs1
Return: 0

* * *

Measured On: BSA (Bos taurus, UniProt P02769)
Construct: gene ALB
Sequence (P02769 whole entry): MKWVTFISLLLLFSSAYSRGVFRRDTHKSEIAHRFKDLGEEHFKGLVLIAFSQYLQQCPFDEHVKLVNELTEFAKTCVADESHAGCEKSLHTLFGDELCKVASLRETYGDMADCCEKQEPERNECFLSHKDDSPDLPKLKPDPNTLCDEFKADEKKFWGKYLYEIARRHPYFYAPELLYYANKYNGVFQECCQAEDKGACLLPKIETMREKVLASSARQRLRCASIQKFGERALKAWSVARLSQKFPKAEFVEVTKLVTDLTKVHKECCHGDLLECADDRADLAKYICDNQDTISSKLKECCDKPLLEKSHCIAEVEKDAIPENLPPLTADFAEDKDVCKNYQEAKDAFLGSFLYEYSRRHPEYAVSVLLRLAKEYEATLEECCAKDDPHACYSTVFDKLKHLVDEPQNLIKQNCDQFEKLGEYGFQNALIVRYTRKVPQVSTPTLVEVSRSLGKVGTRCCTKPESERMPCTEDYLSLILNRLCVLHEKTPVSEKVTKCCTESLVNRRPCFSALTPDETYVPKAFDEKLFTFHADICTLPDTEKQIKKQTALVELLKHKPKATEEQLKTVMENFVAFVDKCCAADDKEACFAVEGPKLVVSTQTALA
Set-up: Intact protein LC/MS covalent labelling, fragments in pools of five, 200 uM each, 4 °C
Test Parameters: 24 h, 4 °C, pool of five; 200 µM; covalent
Reported BSA values for the following compounds.
Just the number.

Compound: CS(=O)(=O)c1ccccc1NC(=O)CCl
BSA: 0

Compound: Cl.O=C(CCl)NCc1ccccn1
BSA: 0

Compound: CN(Cc1ccccc1F)C(=O)CCl
BSA: 0

Compound: C=CC(=O)N1CC(C(=O)NC)C1
BSA: 0.23

Compound: Cc1cccc(C(=O)NNC(=O)CCl)c1
BSA: 0

Enquiry: GET BSA | system: BSA (Bos taurus, UniProt P02769) | item: C=CC(=O)NCc1c2c(nn1C)CCCC2
Return: 0

Enquiry: GET BSA | system: BSA (Bos taurus, UniProt P02769) | item: O=C(CCl)N1N=C(c2ccco2)CC1c1ccco1 (centres unmarked)
Return: 0

Enquiry: GET BSA | system: BSA (Bos taurus, UniProt P02769) | item: O=C(CCl)Nc1nnc(-c2ccccc2)o1
Return: 0

Enquiry: GET BSA | system: BSA (Bos taurus, UniProt P02769) | item: C=CC(=O)N1CCCC(n2nc(C)nc2C)C1 (centres unmarked)
Return: 0

Enquiry: GET BSA | system: BSA (Bos taurus, UniProt P02769) | item: C=CC(=O)N1C2CCC1CC(O)(Cc1ccc(F)cc1F)C2 (centres unmarked)
Return: 0

Enquiry: GET BSA | system: BSA (Bos taurus, UniProt P02769) | item: CC1CC(C)CN(C(=O)CCl)C1 (centres unmarked)
Return: 0
